Test: Solubility of compound A in water at the saturation point, 24 h, room temperature, UV spectrometry
Format: physicochemical
Conditions: water; pH 3; 24 hours, room temperature; read-out: Concentration of compound A (solubility in water at saturation)
Text: 1. Solubility of Compound A
Experimental readout: solubility at 24 h (µg/mL)
Give bare numbers, in µg/mL.

Inquiry: If you can, please state the reported solubility at 24 h value of CC(C)Oc1cccc(CC(=O)N2CCC[C@](CC[N+]34CCC(c5ccccc5)(CC3)CC4)(c3ccc(Cl)c(Cl)c3)C2)c1 [compound A] .
Reply text: 310

====

Test: Solubility of compound A in water at the saturation point, 24 h, room temperature, UV spectrometry
Assay type: physicochemical
Settings: water; pH 5; 24 hours, room temperature; read-out: Concentration of compound A (solubility in water at saturation)
Experimental readout: solubility at 24 h (µg/mL)
Answers are plain numbers, in µg/mL.

Inquiry: If you can, please state the reported solubility at 24 h value of CC(C)Oc1cccc(CC(=O)N2CCC[C@](CC[N+]34CCC(c5ccccc5)(CC3)CC4)(c3ccc(Cl)c(Cl)c3)C2)c1 .
Reply text: 310
